- System: Escherichia coli TOP10
- assay_remarks: shrunken log2 fold change of peptide-encoding DNA abundance (4.5 h post-induction vs induction); higher = less antimicrobial activity (less host growth inhibition)
- measurement_conditions: time post-induction: 4.5 h; library: site-saturation at positions 5, 18, 19, 20
Criterion: shrunken log2 fold change meeting or surpassing -0.01. Met: Criterion met. Not met: Criterion not met.

Before answering, review these 5 worked examples.
chain | qualitative_label
RRIRDRPPRLPRPRPRPHQPPRP | Criterion not met
RRIRQRPPRLPRPRPRPVDQPRP | Criterion met
RRIRPRPPRLPRPRPRPNYWPRP | Criterion not met
RRIRCRPPRLPRPRPRPTLHPRP | Criterion not met
RRIRVRPPRLPRPRPRPITPPRP | Criterion met

Now turn to the next sequence.
Determine whether measured shrunken log2 fold change meets or exceeds -0.01 for "RRIRKRPPRLPRPRPRPFRTPRP"
Criterion met

* * *

- Test system: Escherichia coli TOP10
- assay_remarks: shrunken log2 fold change of peptide-encoding DNA abundance (4.5 h post-induction vs induction); higher = less antimicrobial activity (less host growth inhibition)
- measurement_conditions: time post-induction: 4.5 h; library: site-saturation at positions 5, 18, 19, 20
// map shrunken log2 fold change to label using low bracket: < -0.2; middle bracket: ≥ -0.2 and < 0.1; high bracket: ≥ 0.1

Some solved cases for reference:
chain | qualitative_label
RRIRTRPPRLPRPRPRPHNNPRP | low bracket
RRIRVRPPRLPRPRPRPDQMPRP | middle bracket
RRIRYRPPRLPRPRPRPEIYPRP | low bracket
RRIRIRPPRLPRPRPRPPEVPRP | middle bracket
RRIRLRPPRLPRPRPRPFCVPRP | low bracket
RRIRQRPPRLPRPRPRPWKFPRP | middle bracket
RRIRDRPPRLPRPRPRPYTHPRP | low bracket
RRIRWRPPRLPRPRPRPHHKPRP | low bracket

Please classify: "RRIRMRPPRLPRPRPRPDTGPRP"
high bracket

The entry to classify is "RRIRWRPPRLPRPRPRPEENPRP" ; which class holds it?
middle bracket

Class (by measured shrunken log2 fold change) for "RRIRMRPPRLPRPRPRPAEEPRP"
high bracket

Lab note: sort "RRIRIRPPRLPRPRPRPPRDPRP" into the matching shrunken log2 fold change band.
high bracket

Entry "RRIRDRPPRLPRPRPRPFDIPRP" belongs to which category?
high bracket

* * *

- System: Escherichia coli TOP10
- assay_remarks: shrunken log2 fold change of peptide-encoding DNA abundance (4.5 h post-induction vs induction); higher = less antimicrobial activity (less host growth inhibition)
- measurement_conditions: time post-induction: 4.5 h; library: site-saturation at positions 5, 18, 19, 20
measurement_kind: shrunken log2 fold change
Just the number, please.

chain | measured
RRIRFRPPRLPRPRPRPDNKPRP | -0.853

Fill in the recorded shrunken log2 fold change for this sequence, with Escherichia coli TOP10 as test system: "RRIRMRPPRLPRPRPRPWPDPRP"
0.592

* * *

Reported values of shrunken log2 fold change for individual entries
- System: Escherichia coli TOP10
- assay_remarks: shrunken log2 fold change of peptide-encoding DNA abundance (4.5 h post-induction vs induction); higher = less antimicrobial activity (less host growth inhibition)
- measurement_conditions: time post-induction: 4.5 h; library: site-saturation at positions 5, 18, 19, 20
Please state the value as a number alone, without comment.

Worked cases, answers included:
chain | shrunken log2 fold change
RRIRVRPPRLPRPRPRPCIIPRP | -0.0793
RRIRGRPPRLPRPRPRPDTWPRP | 0.465

Item under review: "RRIRLRPPRLPRPRPRPCGSPRP" . Reported shrunken log2 fold change?
-0.105

For the sequence shown here, "RRIRFRPPRLPRPRPRPAICPRP" , give the reported shrunken log2 fold change.
0.00851

Field request: shrunken log2 fold change | item: "RRIRERPPRLPRPRPRPNQGPRP"
-0.348

* * *

- Test system: Escherichia coli TOP10
- assay_remarks: shrunken log2 fold change of peptide-encoding DNA abundance (4.5 h post-induction vs induction); higher = less antimicrobial activity (less host growth inhibition)
- measurement_conditions: time post-induction: 4.5 h; library: site-saturation at positions 5, 18, 19, 20
measurement_kind: shrunken log2 fold change

chain | shrunken log2 fold change
RRIRHRPPRLPRPRPRPIMMPRP | 0.013

# lookup: shrunken log2 fold change of "RRIRRRPPRLPRPRPRPGTSPRP"
0.0636

What value of shrunken log2 fold change has been reported for the following sequence? "RRIRVRPPRLPRPRPRPEGHPRP"
-0.0324

Bench note: what shrunken log2 fold change did "RRIRVRPPRLPRPRPRPSDPPRP" show?
-0.179

State the recorded shrunken log2 fold change for this entry: "RRIRLRPPRLPRPRPRPQMFPRP"
-0.427

Endpoint output: shrunken log2 fold change of "RRIRIRPPRLPRPRPRPKHHPRP" . Value?
-0.366

Can you look up the measured shrunken log2 fold change of "RRIRPRPPRLPRPRPRPENRPRP" for me?
0.0972

* * *

- System: Escherichia coli TOP10
- assay_remarks: shrunken log2 fold change of peptide-encoding DNA abundance (4.5 h post-induction vs induction); higher = less antimicrobial activity (less host growth inhibition)
- measurement_conditions: time post-induction: 4.5 h; library: site-saturation at positions 5, 18, 19, 20
Categories are assigned from the measured shrunken log2 fold change using these intervals: low-valued (below -0.3), mid-valued (-0.3 to below 0.05), high-valued (0.05 or more)

Observe how each entry below is paired with its result.
chain | tgt | qualitative_label
RRIRNRPPRLPRPRPRPGSCPRP | Escherichia coli TOP10 | mid-valued
RRIRMRPPRLPRPRPRPFQWPRP | Escherichia coli TOP10 | mid-valued
RRIRPRPPRLPRPRPRPWNNPRP | Escherichia coli TOP10 | low-valued
RRIRVRPPRLPRPRPRPEILPRP | Escherichia coli TOP10 | mid-valued

Category of "RRIRTRPPRLPRPRPRPPFAPRP" , please.
high-valued

Which category does the recorded shrunken log2 fold change put "RRIRVRPPRLPRPRPRPIVSPRP" in?
mid-valued

In plain terms, what class is "RRIRKRPPRLPRPRPRPWHYPRP" ?
high-valued

Exam item: assign "RRIRRRPPRLPRPRPRPLSDPRP" to the correct category.
high-valued

* * *

- System: Escherichia coli TOP10
- assay_remarks: shrunken log2 fold change of peptide-encoding DNA abundance (4.5 h post-induction vs induction); higher = less antimicrobial activity (less host growth inhibition)
- measurement_conditions: time post-induction: 4.5 h; library: site-saturation at positions 5, 18, 19, 20
Label satisfied when shrunken log2 fold change is at or above -0.08; anything below gets not satisfied.

Observe how each entry below is paired with its result.
chain | qualitative_label
RRIRARPPRLPRPRPRPIQAPRP | satisfied
RRIRVRPPRLPRPRPRPSVHPRP | satisfied

Does the reported shrunken log2 fold change for "RRIRPRPPRLPRPRPRPCLNPRP" fall at or above the -0.08 mark?
not satisfied

* * *

Each entry below carries its reported shrunken log2 fold change.
- Test system: Escherichia coli TOP10
- assay_remarks: shrunken log2 fold change of peptide-encoding DNA abundance (4.5 h post-induction vs induction); higher = less antimicrobial activity (less host growth inhibition)
- measurement_conditions: time post-induction: 4.5 h; library: site-saturation at positions 5, 18, 19, 20
Output spec: single numeric token, no unit.

Below, each entry is followed by its recorded shrunken log2 fold change result.
chain | shrunken log2 fold change
RRIRTRPPRLPRPRPRPFVFPRP | -0.295
RRIRFRPPRLPRPRPRPHNHPRP | -0.835
RRIRYRPPRLPRPRPRPMRGPRP | 0.156

For the sequence "RRIRPRPPRLPRPRPRPSDFPRP" , what shrunken log2 fold change is on record?
-0.42

Would you mind telling me what shrunken log2 fold change value was observed for "RRIRLRPPRLPRPRPRPNAVPRP" ?
0.00719

Entry "RRIRARPPRLPRPRPRPHVAPRP" : reported shrunken log2 fold change = ?
0.114

Can you look up the measured shrunken log2 fold change of "RRIRYRPPRLPRPRPRPVLAPRP" for me?
-0.037

May I ask what shrunken log2 fold change has been recorded for "RRIRSRPPRLPRPRPRPAKPPRP" ?
-0.146

* * *

- System: Escherichia coli TOP10;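 further: peptides expressed intracellularly from a pBAD plasmid library in pooled LB shake-flask culture, induced with 0.3% L-arabinose, DNA abundance read by NGS, three biological replicates, DESeq2 with apeglm shrinkage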
- assay_remarks: shrunken log2 fold change of peptide-encoding DNA abundance (4.5 h post-induction vs induction); higher = less antimicrobial activity (less host growth inhibition)
- measurement_conditions: time post-induction: 4.5 h; library: site-saturation at positions 5, 18, 19, 20
shrunken log2 fold change: recorded values
Form field (numeric): enter value without unit.

Below, each entry is followed by its recorded shrunken log2 fold change result.
chain | measurement_kind | measured
RRIRFRPPRLPRPRPRPVWIPRP | shrunken log2 fold change | -0.0471
RRIRMRPPRLPRPRPRPGRTPRP | shrunken log2 fold change | 0.894
RRIRIRPPRLPRPRPRPPRRPRP | shrunken log2 fold change | 0.396
RRIRSRPPRLPRPRPRPMNSPRP | shrunken log2 fold change | -0.776
RRIRHRPPRLPRPRPRPGLTPRP | shrunken log2 fold change | 0.129

// moving on: another record for shrunken log2 fold change
For the sequence "RRIRARPPRLPRPRPRPSVFPRP" , what shrunken log2 fold change is on record?
0.461

Origin of the recorded values: the supplement of paper PMC9112550
